- Tested on: L1210 leukemia ip in BDF1 mice, survival T/C
- protocolDescription: NCI In Vivo Anticancer Drug Screen. Data for tumor model L1210 Leukemia (intraperitoneal) in B6D2F1 (BDF1) mice
- conditionLabel: endpoint: mean survival time; dose: 200.0 mg/kg/injection; schedule: Q01DX001 (ip); vehicle: Klucel (hydroxypropylcellulose) (HPC); higher = longer survival
Toxic doses and inconclusive results are not listed.
quantityName: T/C

Example entries and their recorded answers appear below.
Fill in the blank: the reported T/C of COc1ccccc1-n1c(O)c(N=Nc2ccc(Cl)cc2)c(=O)n(-c2ccc(C)cc2)c1=S is ____.
96 % of control

Record request: T/C value, item COC1OC(COC(C)=O)C(OC(C)=O)C(NC(=O)NCCCl)C1OC(C)=O (stereo unspecified)
102 % of control

Any idea what T/C was measured for CS(=O)(=O)OCC(=O)O ?
97 % of control

Others:
Dear colleague, I am looking for the recorded T/C of the following compound: Cc1nc(N)c(=O)[nH]c1C
97 % of control

Look up T/C: O=P(NC12CC3CC(CC(C3)C1)C2)(NC12CC3CC(CC(C3)C1)C2)N(CCCl)CCCl
94 % of control

Give the measured T/C of O=C(Cl)OC12CC3CC(CC(C3)C1)C2 .
97 % of control

Entry COC(=O)C(CCC(=O)OC(C)(C)C)NC(=O)C(F)(F)F (stereo unspecified) has what T/C?
97 % of control

Which value of T/C has been reported for CCOC(=O)NCc1cccc2ccccc12 in the records?
90 % of control

* * *

Attribute: T/C
- System: L1210 leukemia ip in BDF1 mice, survival T/C
- protocolDescription: NCI In Vivo Anticancer Drug Screen. Data for tumor model L1210 Leukemia (intraperitoneal) in B6D2F1 (BDF1) mice
- conditionLabel: endpoint: mean survival time; dose: 6.0 mg/kg/injection; schedule: Q01DX009 (ip); vehicle: saline; higher = longer survival
Toxic doses and inconclusive results are not listed.

Under L1210 leukemia ip in BDF1 mice, survival T/C: T/C value of C=CC#N ?
95 % of control

Continuing:
Find the measured T/C: item CCCCCCCC(C(=O)O)C(CCCCCCC)C(=O)O (centres undefined) , target or system L1210 leukemia ip in BDF1 mice, survival T/C.
89 % of control

Please provide the recorded T/C for COc1cccc2c1C(=O)c1c(O)c3c(c(O)c1C2=O)C[C@@](O)(/C(C)=N\NC(N)=O)C[C@@H]3OC1CC(N)C(O)C(C)O1 (some centres undefined) , tested on L1210 leukemia ip in BDF1 mice, survival T/C.
117 % of control

Notebook entry, L1210 leukemia ip in BDF1 mice, survival T/C assay: T/C of [Ni+2].[SH2+]C([SH2+])=Nc1ccccc1.[SH2+]C([SH2+])=Nc1ccccc1.c1ccc(C[P+](c2ccccc2)(c2ccccc2)c2ccccc2)cc1 = ?
94 % of control

* * *

- Test system: L1210 leukemia ip in BDF1 mice, survival T/C
- protocolDescription: NCI In Vivo Anticancer Drug Screen. Data for tumor model L1210 Leukemia (intraperitoneal) in B6D2F1 (BDF1) mice
- conditionLabel: endpoint: mean survival time; dose: 200.0 mg/kg/injection; schedule: Q04DX003 (ip); vehicle: saline sonified; higher = longer survival
Toxic doses and inconclusive results are not listed.
quantityName: T/C

Request body: readout T/C, system L1210 leukemia ip in BDF1 mice, survival T/C, query CCOC(=O)CC1=NC(C)(C)CC(C)O1 (centres undefined) . Return the value.
92 % of control

* * *

Below, each entry is listed with its recorded T/C.
- Tested on: L1210 leukemia ip in BDF1 mice, survival T/C
- protocolDescription: NCI In Vivo Anticancer Drug Screen. Data for tumor model L1210 Leukemia (intraperitoneal) in B6D2F1 (BDF1) mice
- conditionLabel: endpoint: mean survival time; dose: 100.0 mg/kg/injection; schedule: Q04DX003 (ip); vehicle: saline with Tween-80; higher = longer survival
Toxic doses and inconclusive results are not listed.

Reference set, count: 3
Entry O=C(O)CNC(=O)/C(=C\c1[nH]c(=O)[nH]c(=O)c1Br)NC(=O)c1ccccc1 : reported T/C = ?
104 % of control

# get_value(readout='T/C', item= CCCCCCCC/C=C\CCCCCCCC(=O)OCCSCCOC(C)=O )
89 % of control

GET /values?readout=T/C&item= Cc1cc(Cl)c(=O)n(-c2ccc(Cl)cc2)n1
103 % of control

New cases:
Which T/C is listed for O=c1[nH]cnc2c1nc1n2CCC1 ?
105 % of control

Which T/C reading was recorded for the compound O=C1NC(=O)c2ncccc21 ?
87 % of control

May I ask what T/C has been recorded for Cc1ccc(S(=O)(=O)c2ccc(F)cc2)cc1 ?
104 % of control

* * *

- Test system: L1210 leukemia ip in BDF1 mice, survival T/C
- protocolDescription: NCI In Vivo Anticancer Drug Screen. Data for tumor model L1210 Leukemia (intraperitoneal) in B6D2F1 (BDF1) mice
- conditionLabel: endpoint: mean survival time; dose: 100.0 mg/kg/injection; schedule: Q04DX003 (ip); vehicle: Klucel (hydroxypropylcellulose) (HPC); higher = longer survival
Toxic doses and inconclusive results are not listed.
quantityName: T/C

Known results for compounds:
Item: CCOc1cccc(Cc2cn(CCC#N)c(=O)[nH]c2=O)c1 Test system: L1210 leukemia ip in BDF1 mice, survival T/C Read-out: T/C Value: ?
108 % of control

# value lookup — system L1210 leukemia ip in BDF1 mice, survival T/C, readout T/C, item COCC1C2CC(=O)OC2C(I)C1OC(=O)c1ccc(-c2ccccc2)cc1 (stereo unspecified)
100 % of control

What T/C appears in the records for this compound with L1210 leukemia ip in BDF1 mice, survival T/C? Nc1ccc2ccc3ccc4ccccc4c3c2c1
104 % of control

State its T/C on L1210 leukemia ip in BDF1 mice, survival T/C: Nc1cc(F)c2c(c1)C(=O)c1cc(F)ccc1-2
96 % of control

L1210 leukemia ip in BDF1 mice, survival T/C / T/C / O=[N+]([O-])c1cc(Cl)cc2c1nc(NCCCO)c1ccccc12 : value?
105 % of control

New cases:
Fill in the recorded T/C for this compound, with L1210 leukemia ip in BDF1 mice, survival T/C as test system: O=C(c1ccccc1)N1C(c2ccccc2)C1(c1ccccc1)C1(c2ccccc2)SCCCS1 (stereo unspecified)
108 % of control

Provide the documented T/C with L1210 leukemia ip in BDF1 mice, survival T/C as the system for O=C1OCC2CC3c4ccccc4C12c1ccccc13 (stereo unspecified)
98 % of control

* * *

compounds and their reported T/C
- Tested on: L1210 leukemia ip in BDF1 mice, survival T/C
- protocolDescription: NCI In Vivo Anticancer Drug Screen. Data for tumor model L1210 Leukemia (intraperitoneal) in B6D2F1 (BDF1) mice
- conditionLabel: endpoint: mean survival time; dose: 200.0 mg/kg/injection; schedule: Q04DX003 (ip); vehicle: Klucel (hydroxypropylcellulose) (HPC); higher = longer survival
Toxic doses and inconclusive results are not listed.

Param item = Cc1ccc(NC(=O)Oc2ccc(Cl)cc2C)c([N+](=O)[O-])c1 ; retrieve measured T/C.
101 % of control

Further cases:
Quick one: T/C for COc1ccc(C2CCCCC2O)cc1 (stereo unspecified) ?
91 % of control

// T/C lookup, key: CC1CCCC(NC(=O)NCCCl)C1 (stereo unspecified)
87 % of control

Can you look up the measured T/C of CCCCS/C=C1/CC2(C)C(CCC3C4CCC(O)C4(C)CCC32)CC1=O (stereo unspecified) for me?
91 % of control

Which T/C is reported for this compound? O=[N+]([O-])c1ccc(C(Cl)C2(Br)C=c3ccccc3=C2)cc1 (stereo unspecified)
94 % of control

Query (compound): N#CC(NC(=O)NCCCl)c1ccccc1 (stereo unspecified) ; field requested: T/C
101 % of control

* * *

- Tested on: L1210 leukemia ip in BDF1 mice, survival T/C
- protocolDescription: NCI In Vivo Anticancer Drug Screen. Data for tumor model L1210 Leukemia (intraperitoneal) in B6D2F1 (BDF1) mice
- conditionLabel: endpoint: mean survival time; dose: 200.0 mg/kg/injection; schedule: Q01DX009 (ip); vehicle: saline; higher = longer survival
- Procedure: The antitumor activity of compounds was measured in mice bearing transplantable tumors. Survival or tumor size were measured and the results are expressed as the measurement made in the treated group (T) divided by the measurement made in the vehicle treated control group (C). The tumor model used in this assay is L1210 Leukemia (intraperitoneal) in B6D2F1 (BDF1) mice
Inconclusive results and toxic doses are left out.
Recorded T/C, one value per entry.

# count of solved cases: 5
Recorded T/C for C/C=N/NC(=O)c1ccc[n+](C)c1 , please?
96 % of control

Quick one: T/C of O=C(O)CCN1C(=O)CCC1=O ?
94 % of control

Can you share its T/C? I mean this molecule: CCOc1ccc(=O)[nH]n1
93 % of control

Sample Nc1nc2ncc(NCc3ccc(C(=O)NC(CCC(=O)O)C(=O)O)cc3)nc2c(=O)[nH]1 (centres undefined) — what was its T/C?
100 % of control

Give the measured T/C of CCOCCc1ccccn1 .
100 % of control

More entries:
Reported T/C, molecule O=C1NC(=O)C(c2ccccc2)(c2ccc(Cl)cc2Cl)N1 (centres undefined) : ____
87 % of control

Entry CC1(C)N=C(N)N=C(N)N1c1cccc(OCCOc2ccc(NC(=O)CBr)cc2)c1 : reported T/C = ?
97 % of control

Which value of T/C has been reported for Nc1ccncn1 in the records?
96 % of control

Quick one: T/C of Cn1cnc(C(N)=S)c1N ?
105 % of control

Which T/C reading was recorded for the molecule COC(=O)C1(C)CCC(c2ccc(C)cc2)=C(CC(=O)O)C1 (centres undefined) ?
97 % of control

Would you mind telling me what T/C value was observed for Nc1nc2c(c(-c3ccc(Cl)cc3)n1)CN(c1ccc(Br)cc1)C2=O ?
92 % of control

Quick one: T/C of COCCNCCOC ?
98 % of control

# get_value(readout='T/C', item= CC(=O)Oc1ccc(OC(C)=O)c2c1CC1(C)OC1(C)C2 (centres undefined) )
93 % of control

Query: T/C; subject: Cc1ccc(S(=O)(=O)NC(=S)Nc2ccccc2)cc1
109 % of control

Fill in: T/C of COc1cc(N)c2ncsc2c1 is ___
102 % of control

Source: PubChem BioAssay AID248
